species on record: Oryctolagus cuniculus; test: Activation of rabbit skeletal muscle PP1 catalytic subunit at 19 to 395 uM using [32P]MLC20 as substrate pretreated for 10 mins followed by substrate addition measured after 10 mins by scintillation counting method relative to control
Calls of active or inactive are those of the source. The rule behind the calls is not given here.
Mark one answer only. Choices: T (active), F (inactive)

Look over these answered cases.
[[record]]
compound_structure = "CC(=O)OC[C@H]1O[C@@H]([Se]C(=O)c2ccc(C)cc2)[C@H](OC(C)=O)[C@@H](OC(C)=O)[C@@H]1OC(C)=O"
qualitative_label = "T"

[[record]]
compound_structure = "CC(=O)OC[C@H]1O[C@@H]([Se]C(=O)c2ccc(Cl)cc2)[C@H](OC(C)=O)[C@@H](OC(C)=O)[C@@H]1OC(C)=O"
qualitative_label = "T"

[[record]]
compound_structure = "COc1ccc(C[Se][C@@H]2O[C@H](COC(C)=O)[C@@H](OC(C)=O)[C@H](OC(C)=O)[C@H]2OC(C)=O)cc1"
qualitative_label = "T"

[[record]]
compound_structure = "CC(=O)OC[C@H]1O[C@@H]([Se]Cc2ccc([N+](=O)[O-])cc2)[C@H](OC(C)=O)[C@@H](OC(C)=O)[C@@H]1OC(C)=O"
qualitative_label = "F"


Request: Write down the call the test reported for this compound. Item: CC(=O)OC[C@H]1O[C@@H]([Se]c2ccc([N+](=O)[O-])cc2[N+](=O)[O-])[C@H](OC(C)=O)[C@@H](OC(C)=O)[C@@H]1OC(C)=O
Result: F

Request: Assay result, entry OC[C@H]1O[C@@H]([Se]Cc2ccccc2C(F)(F)F)[C@H](O)[C@@H](O)[C@@H]1O — outcome?
Result: F

---

experiment: Activation of rabbit skeletal muscle PP2A catalytic subunit using [32P]MLC20 as substrate pretreated for 10 mins followed by substrate addition measured after 10 mins by scintillation counting method relative to control; parameters: species or system Oryctolagus cuniculus
Measured property: EC50
# output: numeric value plus its unit

Use these answered entries as a reference point.
[[record]]
compound_structure = "COc1ccc(C[Se][C@@H]2O[C@H](COC(C)=O)[C@@H](OC(C)=O)[C@H](OC(C)=O)[C@H]2OC(C)=O)cc1"
measurement = "119 µM"

[[record]]
compound_structure = "CC(=O)OC[C@H]1O[C@@H]([Se]Cc2ccccc2C(F)(F)F)[C@H](OC(C)=O)[C@@H](OC(C)=O)[C@@H]1OC(C)=O"
measurement = "83.5 µM"

[[record]]
compound_structure = "CC(=O)OC[C@H]1O[C@@H]([Se]Cc2ccc(Br)cc2)[C@H](OC(C)=O)[C@@H](OC(C)=O)[C@@H]1OC(C)=O"
measurement = "119 µM"

[[record]]
compound_structure = "CC(=O)OC[C@H]1O[C@@H]([Se]c2ccccc2)[C@H](OC(C)=O)[C@@H](OC(C)=O)[C@@H]1OC(C)=O"
measurement = "84.8 µM"


// moving on: another record for EC50
EC50 reported for this compound CC(=O)OC[C@H]1O[C@@H]([Se]CCc2ccccc2)[C@H](OC(C)=O)[C@@H](OC(C)=O)[C@@H]1OC(C)=O : 104 µM
